// provenance: the supplement of paper PMC10307832

System: HCC-366
Assay overview: relative viability (nuclei count vs DMSO), 5 days (fraction); higher = more cells survive
Condition set: first compound 0.8 µM
Listed next: entries and their corresponding relative viability.

| Compound | relative viability |
| --- | --- |
| C=C1C(=O)O[C@@H](CCCCCCCC)[C@@H]1C(=O)O [C-75] + CC(=O)c1c(C)c2cnc(Nc3ccc(N4CCNCC4)cn3)nc2n(C2CCCC2)c1=O [Palbociclib] (partner 0.5 µM) | 0.33 |
| C=C1C(=O)O[C@@H](CCCCCCCC)[C@@H]1C(=O)O [C-75] + O=C(c1cc(Cc2n[nH]c(=O)c3ccccc23)ccc1F)N1CCN(C(=O)C2CC2)CC1 [Olaparib] (partner 8 µM) | 0.341 |
| Oc1nc(-c2ccc(C(F)(F)F)cc2)nc2c1CSCC2 [XAV939] + Cc1nc(NC(=O)N2CCC[C@H]2C(N)=O)sc1-c1ccnc(C(C)(C)C(F)(F)F)c1 [Alpelisib] (partner 2 µM) | 0.446 |

====

Test system: NCI-H1437
Assay overview: relative viability (nuclei count vs DMSO), 5 days (fraction); higher = more cells survive
Condition set: first compound 1 µM

| Compound | relative viability |
| --- | --- |
| NC(=O)Nc1cc(-c2cccc(F)c2)sc1C(=O)N[C@H]1CCCNC1 [AZD7762] + CC(C)C[C@H](NC(=O)[C@H](Cc1ccccc1)NC(=O)c1cnccn1)B(O)O [Bortezomib] (partner 0.002 µM) | 0.433 |
| NC(=O)Nc1cc(-c2cccc(F)c2)sc1C(=O)N[C@H]1CCCNC1 [AZD7762] + Cc1nc(NC(=O)N2CCC[C@H]2C(N)=O)sc1-c1ccnc(C(C)(C)C(F)(F)F)c1 [Alpelisib] (partner 2 µM) | 1 |
| NC(=O)Nc1cc(-c2cccc(F)c2)sc1C(=O)N[C@H]1CCCNC1 [AZD7762] + CC(=O)c1c(C)c2cnc(Nc3ccc(N4CCNCC4)cn3)nc2n(C2CCCC2)c1=O [Palbociclib] (partner 0.5 µM) | 0.35 |
| NC(=O)Nc1cc(-c2cccc(F)c2)sc1C(=O)N[C@H]1CCCNC1 [AZD7762] + CC(=O)Nc1cccc(-n2c(=O)n(C3CC3)c(=O)c3c(Nc4ccc(I)cc4F)n(C)c(=O)c(C)c32)c1 [Trametinib] (partner 0.02 µM) | 0.494 |
| NC(=O)Nc1cc(-c2cccc(F)c2)sc1C(=O)N[C@H]1CCCNC1 [AZD7762] + N=C(N)NC(=N)NCCc1ccccc1 [Phenformin] (partner 250 µM) | 0.279 |

====

Tested on: NCI-H1437
Assay overview: relative viability (nuclei count vs DMSO), 5 days (fraction); higher = more cells survive
Condition set: first compound 0.1265 µM

| Compound | relative viability |
| --- | --- |
| O=C(O)c1ccc(-c2c[nH]c3ncc(-c4ccccc4)cc23)cc1C1CCCC1 + NC(=O)Nc1cc(-c2cccc(F)c2)sc1C(=O)N[C@H]1CCCNC1 [AZD7762] (partner 0.2 µM) | 1.21 |
| O=C(O)c1ccc(-c2c[nH]c3ncc(-c4ccccc4)cc23)cc1C1CCCC1 + COc1cc2c(Oc3ccc(NC(=O)C4(C(=O)Nc5ccc(F)cc5)CC4)cc3F)ccnc2cc1OCCCN1CCOCC1 [Foretinib] (partner 0.25 µM) | 1.19 |
| O=C(O)c1ccc(-c2c[nH]c3ncc(-c4ccccc4)cc23)cc1C1CCCC1 + Cc1nc(Nc2ncc(C(=O)Nc3c(C)cccc3Cl)s2)cc(N2CCN(CCO)CC2)n1 [Dasatinib] (partner 0.075 µM) | 0.386 |
